These entries and their values trace back to PubChem BioAssay AID1918994.

Listed here: items and their measured viability, T/C.
test system: 292921-168-R-J2-PDC complex spheroid growth; assay: Anticancer human tumor 292921-168-R-J2-PDC patient-derived pancreatic carcinoma cell line growth inhibition [AhR]; conditions: second compound 3.16 µM; first compound 0.003 µM; hits give low values;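 further: spheroids exposed to compounds for seven days after three days of growth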
measured.endpoint: viability, T/C

[[record]]
compound = "CC(C)CC(NC(=O)C(Cc1ccccc1)NC(=O)c1cnccn1)B(O)O (stereo not drawn) + Cc1ccccc1N=Nc1ccc(NC(=O)c2ccnn2C)c(C)c1"
endpoint_value = "82.8%"

[[record]]
compound = "CC(C)CC(NC(=O)C(Cc1ccccc1)NC(=O)c1cnccn1)B(O)O (stereo not drawn) + Cc1cncc(-c2nc(NCCc3c[nH]c4ccccc34)c3ncn(C(C)C)c3n2)c1"
endpoint_value = "77%"

[[record]]
compound = "CCc1c2c(nc3ccc(O)cc13)-c1cc3c(c(=O)n1C2)COC(=O)[C@]3(O)CC + Cc1ccccc1N=Nc1ccc(NC(=O)c2ccnn2C)c(C)c1"
endpoint_value = "40.6%"

